- Tested on: SNB-19 CNS
- assay overview: NCI-60 one-dose screen, 48 h (100 = growth as untreated, 0 = no growth, -100 = all killed)
- test conditions: 10 µM
This is part of a sample that, as a whole, favours compounds with a hit. Of some 83,000 tested, about 20% had one in any assay.
measurement type: growth (%)
Answers are plain numbers, in %.

Some solved entries appear below for comparison.
[[record]]
given_smiles = "COc1cc2nc(Sc3sc(N)nc3C)n(-c3ccc(Oc4ccccc4)cc3)c(=O)c2cc1OC"
measurement_type = "growth"
meas_value = 105

[[record]]
given_smiles = "Cc1ccc2nc3[nH]c(=O)[nH]c(=O)c3c(N)c2c1"
measurement_type = "growth"
meas_value = 86.2


Respectfully, I request growth for each entry included below.
1. O=C(Nc1ccc(OCc2nnc(-c3ccccc3)o2)c(F)c1)Nc1ccc(Cl)c(Cl)c1
2. COc1cc(CSc2nc3ccc(C)cc3c(=O)n2-c2ccccc2)cc(OC)c1OC
3. CCNC(=S)NN
4. CCc1c(C)[nH]c(=O)c(C(N)=O)c1C#N

(A)
1: 59.9; 2: 57.2; 3: 97.2; 4: 90.1

====

- System: PC-3 prostate
- assay overview: NCI-60 one-dose screen, 48 h (100 = growth as untreated, 0 = no growth, -100 = all killed)
- test conditions: 10 µM
Compounds without any hit were thinned out: in the full panel of roughly 83,000, 20% have a hit.
Would you kindly list growth for each of these compounds?
Numbers only, in %.

[[record]]
given_smiles = "C[C@]12CC[C@H]3[C@@H](CCC4=CC(=O)CC[C@@]43C)[C@@H]1CC[C@@H]2c1csc(N)n1"
experimental_system = "PC-3 prostate"
measurement_type = "growth"
meas_value = 19.3

[[record]]
given_smiles = "COc1cc(-c2cc(/C=C/C(C)=O)[nH]n2)cc(OC)c1OC"
experimental_system = "PC-3 prostate"
measurement_type = "growth"
meas_value = 71.3

[[record]]
given_smiles = "O=C(OCc1ncc(-c2ccc(C(F)(F)F)cc2)c(NC2CCCCCC2)n1)c1c(F)c(F)c(F)c(F)c1F"
experimental_system = "PC-3 prostate"
measurement_type = "growth"
meas_value = 28.6

[[record]]
given_smiles = "CCCc1c(C)nc2scc(-c3ccc(Cl)cc3)n2c1=O"
experimental_system = "PC-3 prostate"
measurement_type = "growth"
meas_value = 97.3

[[record]]
given_smiles = "CCOc1nc(-c2ccccc2)cc2c(O)c(C(=O)N/N=C/c3ccc(OC)cc3)[nH]c(=O)c12"
experimental_system = "PC-3 prostate"
measurement_type = "growth"
meas_value = 88

[[record]]
given_smiles = "O=C(NC1CCN(Cc2ccccc2)CC1)c1cc(-c2ccncc2)nc2ccc(Cl)cc12"
experimental_system = "PC-3 prostate"
measurement_type = "growth"
meas_value = 33.9

[[record]]
given_smiles = "CCSc1nc2c([nH]1)c(=O)n(C)c(=S)n2C"
experimental_system = "PC-3 prostate"
measurement_type = "growth"
meas_value = 101

[[record]]
given_smiles = "O=C1CC[C@@H](C(=O)N[C@H]2CSSC[C@@H](C(=O)NCCc3ccccc3)NC(=O)[C@H](Cc3ccccc3)NC(=O)[C@@H]3CCCN3C(=O)[C@@H]3CCCN3C2=O)N1"
experimental_system = "PC-3 prostate"
measurement_type = "growth"
meas_value = 84.1


Continue with the compound presented below.
(Q) Lab request: please report growth under test system PC-3 prostate for CCc1nn2c(-c3ccccc3)c(-c3cc(OC)c(OC)c(OC)c3)nc2s1
(A) 71.4
